Target: human RXFP1 (Homo sapiens, UniProt Q9HBX9)
Sequence (Q9HBX9 1-757): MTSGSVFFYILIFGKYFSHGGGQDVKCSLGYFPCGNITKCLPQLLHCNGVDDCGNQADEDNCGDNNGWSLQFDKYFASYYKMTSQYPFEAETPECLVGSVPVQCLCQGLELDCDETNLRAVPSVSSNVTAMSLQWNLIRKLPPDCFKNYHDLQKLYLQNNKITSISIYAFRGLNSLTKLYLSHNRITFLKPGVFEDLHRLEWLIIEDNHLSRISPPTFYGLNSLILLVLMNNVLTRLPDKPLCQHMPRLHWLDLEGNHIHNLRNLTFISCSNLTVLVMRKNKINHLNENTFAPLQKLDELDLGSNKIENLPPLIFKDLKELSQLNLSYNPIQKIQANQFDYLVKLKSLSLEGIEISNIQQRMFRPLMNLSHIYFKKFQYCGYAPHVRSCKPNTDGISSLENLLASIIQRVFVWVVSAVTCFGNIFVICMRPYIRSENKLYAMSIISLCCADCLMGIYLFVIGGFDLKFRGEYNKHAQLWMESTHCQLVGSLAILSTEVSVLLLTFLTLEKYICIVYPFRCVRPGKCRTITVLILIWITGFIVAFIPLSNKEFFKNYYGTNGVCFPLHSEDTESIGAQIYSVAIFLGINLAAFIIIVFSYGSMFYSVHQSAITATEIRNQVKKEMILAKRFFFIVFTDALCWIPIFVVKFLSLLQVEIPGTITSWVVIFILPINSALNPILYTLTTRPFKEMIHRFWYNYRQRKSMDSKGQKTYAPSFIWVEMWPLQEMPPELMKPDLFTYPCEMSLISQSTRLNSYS
Assay: RXFP1 Hu cAMP (Test A)
Type: cell-based
Parameters: expressed in transfected cells; host or cells: Jump-In T-REx CHO-K1 cells (ThermoFisher), induced with 10 ng/ml doxycycline for 24 h
Conditions: RXFP1 Hu cAMP; read-out: Test A EC50
Measurement type: EC50 (nM)
Output spec: scalar in nM, unitless text.

{"Molecule": "CCC(CC)CNC(=O)[C@H]1[C@@H]2CC[C@@H](C2)[C@H]1NC(=O)c1cc(OC2CCC(C)(C(=O)O)CC2)c(F)cc1OC (some centres unmarked)", "Experimental system": "human RXFP1 (Homo sapiens, UniProt Q9HBX9)", "Units label": "nM", "Number": 83}

// lookup EC50 for COc1cc(Cl)c(O[C@H]2CC[C@@](C)(C(=O)O)CC2)cc1C(=O)N[C@@H]1[C@H]2CC[C@H](C2)[C@@H]1C(=O)NCC(C)(C)C
37

Then what about the molecule COc1cc(F)c(O[C@H]2CC[C@@](OC)(C(=O)O)CC2)cc1C(=O)N[C@@H]1[C@@H]2CC[C@@H](C2)[C@@H]1C(=O)Nc1cccc(S(=O)(=O)C(F)(F)F)c1 ?
13

Then what about the molecule COc1cc(C#N)c(O[C@H]2CC[C@@](C)(C(=O)O)CC2)cc1C(=O)N[C@@H]1[C@H]2CC[C@H](C2)[C@@H]1C(=O)NC1CC(F)(F)C1 ?
180

Then what about the molecule COc1cc(F)c(O[C@H]2CC[C@@](C)(C(=O)O)CC2)cc1C(=O)N[C@@H]1[C@H]2CC[C@H](C2)[C@@H]1C(=O)NC(C)(C)C(F)(F)F ?
94

Then what about the molecule COc1cc(F)c(O[C@H]2CC[C@@H](C(=O)O)CC2)cc1C(=O)N[C@@H]1[C@H]2CC[C@H](C2)[C@@H]1C(=O)Nc1c(F)c(F)c(F)c(F)c1F ?
330

Then what about the molecule COc1cc(F)c(O[C@H]2CC[C@@](C)(C(=O)O)CC2)cc1C(=O)N[C@@H]1[C@H]2CC[C@H](C2)[C@@H]1C(=O)N[C@@H]1CCCN(S(=O)(=O)C(F)(F)F)C1 ?
110

Then what about the molecule COc1cc(F)c(-c2ccc(C(=O)O)cc2)cc1C(=O)N[C@H]1[C@@H](C(=O)Nc2ccc(F)c(C(F)(F)F)c2)[C@@H]2C=C[C@H]1C2 (racemic) ?
180

Then what about the molecule COc1cc(F)c(O[C@H]2CC[C@@](C)(C(=O)O)CC2)cc1C(=O)N[C@@H]1COC[C@@H]1C(=O)Nc1cccc(S(=O)(=O)C(F)(F)F)c1 (relative stereo) [Example 561] ?
130

* * *

Target: human RXFP1 (Homo sapiens)
Sequence (Q9HBX9 1-757): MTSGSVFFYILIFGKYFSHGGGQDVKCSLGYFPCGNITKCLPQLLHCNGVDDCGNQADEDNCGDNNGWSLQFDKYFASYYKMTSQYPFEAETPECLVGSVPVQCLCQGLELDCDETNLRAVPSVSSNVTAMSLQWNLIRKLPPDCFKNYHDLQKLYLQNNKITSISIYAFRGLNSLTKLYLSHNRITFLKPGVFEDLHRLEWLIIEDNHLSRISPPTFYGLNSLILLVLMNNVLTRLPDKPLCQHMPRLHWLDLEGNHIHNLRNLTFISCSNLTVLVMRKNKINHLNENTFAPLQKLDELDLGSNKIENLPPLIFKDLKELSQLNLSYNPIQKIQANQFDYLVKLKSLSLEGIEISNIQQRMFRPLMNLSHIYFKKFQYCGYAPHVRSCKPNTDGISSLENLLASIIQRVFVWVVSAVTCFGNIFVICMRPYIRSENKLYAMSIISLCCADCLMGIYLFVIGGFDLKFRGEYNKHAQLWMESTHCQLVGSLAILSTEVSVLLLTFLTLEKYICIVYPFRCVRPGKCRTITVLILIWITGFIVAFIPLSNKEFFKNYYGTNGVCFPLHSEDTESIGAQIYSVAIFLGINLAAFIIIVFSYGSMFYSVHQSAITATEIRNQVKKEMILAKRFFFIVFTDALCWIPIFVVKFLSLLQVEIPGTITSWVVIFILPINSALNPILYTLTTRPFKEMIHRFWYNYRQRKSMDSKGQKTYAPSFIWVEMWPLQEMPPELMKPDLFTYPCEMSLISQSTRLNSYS
Assay: Human RXFP1 cGMP Production Assay (Test G)
Format: cell-based
Parameters: expressed in transfected cells
Settings: HEK293s cells stably transfected with human RXFP1; Green GENIe cGMP biosensor, area under curve 0 to 90 min
Measurement type: pEC50
Bear in mind: pEC50 is minus log10 of a mol/L concentration; give just that figure.

{"Compound": "COc1cc(F)c(-c2ccc(C(=O)O)cc2)cc1C(=O)N[C@H]1[C@@H](C(=O)Nc2cccc(S(=O)(=O)C(F)(F)F)c2)[C@@H]2C=C[C@H]1C2 (single isomer, unassigned) [Example 552]", "pEC50": 6.52}
{"Compound": "COc1cc(F)c(O[C@H]2CC[C@@H](C(=O)O)CC2)cc1C(=O)N[C@@H]1[C@H]2CC[C@H](C2)[C@@H]1C(=O)Nc1ccc(F)c(S(F)(F)(F)(F)F)c1 [Example 433]", "pEC50": 7.72}
{"Compound": "COc1cc(F)c(O[C@H]2CC[C@@](C)(C(=O)O)CC2)cc1C(=O)N[C@@H]1[C@H]2CC[C@H](C2)[C@@H]1C(=O)Nc1ccc(F)c(S(F)(F)(F)(F)F)c1 [Example 353]", "pEC50": 8.43}

Can you look up pEC50 on human RXFP1 (Homo sapiens) for COc1cc(F)c(O[C@H]2CC[C@@](C)(C(=O)O)CC2)cc1C(=O)N[C@@H]1[C@H]2CC[C@H](C2)[C@@H]1C(=O)Nc1cccc(S(=O)(=O)C(F)(F)F)c1 [Example 208] ?
8.03

* * *

assay: Human Plasma Protein Binding (Test B); assay type: in vitro ADME; details: fraction unbound (fu)
Quick reference for Test B Human Plasma Protein Binding (% free) among some compounds
Output spec: scalar in % free, unitless text.

Reference set, count: 3
{"Compound": "COc1cc(F)c(O[C@H]2CC[C@@](C)(C(=O)O)CC2)cc1C(=O)Nc1cccc(Cl)c1C(=O)NCC1(C)CCC1 [Example 54]", "Number": 1.1}
{"Compound": "COc1cc(F)c(O[C@H]2CC[C@@](C)(C(=O)O)CC2)cc1C(=O)N[C@@H]1COC[C@@H]1C(=O)Nc1cccc(S(=O)(=O)C(F)(F)F)c1 (relative stereo) [Example 561]", "Number": 3.7}
{"Compound": "COc1cc(C#N)c(O[C@H]2CC[C@@](C)(C(=O)O)CC2)cc1C(=O)N[C@@H]1[C@H]2CC[C@H](C2)[C@@H]1C(=O)NCC1CCC(C#N)CC1 (some centres unmarked) [Example 107]", "Number": 26}

Attention now turns to another entry.
// lookup Test B Human Plasma Protein Binding (% free) for COc1cc(F)c(O[C@H]2CC[C@@H](C(N)=O)CC2)cc1C(=O)N[C@H]1[C@@H](C(=O)Nc2ccc(F)c(C(F)(F)F)c2)[C@@H]2C=C[C@H]1C2 [Example 499]
0.51

* * *

test: Solubility (Test F); assay type: physicochemical; conditions: arithmetic mean if run multiple times
Measurement type: solubility (µM)
Output spec: scalar in µM, unitless text.

{"Compound": "COc1cc(F)c(-c2ncc(CCC(=O)O)s2)cc1C(=O)N[C@@H]1[C@H]2CC[C@H](C2)[C@@H]1C(=O)Nc1cccc(S(=O)(=O)C(F)(F)F)c1 [Example 243]", "Number": 900}
{"Compound": "COc1cc(C#N)c(O[C@H]2C[C@@]3(C2)C[C@H](C(=O)O)C3)cc1C(=O)N[C@@H]1[C@H]2CC[C@H](C2)[C@@H]1C(=O)NCC1(C)CCC1 (single isomer, unassigned) [Example 6]", "Number": 820}
{"Compound": "COc1cc(F)c(O[C@H]2CC[C@@H](C(=O)O)CC2)cc1C(=O)N[C@@H]1[C@H]2CC[C@H](C2)[C@@H]1C(=O)Nc1ccc(C(F)(F)F)cn1 [Example 13]", "Number": 520}

Attention now turns to another entry.
// lookup solubility for CCC(CC)[C@H](C)NC(=O)[C@H]1[C@@H]2CC[C@@H](C2)[C@H]1NC(=O)c1cc(O[C@H]2CC[C@@](C)(C(=O)O)CC2)c(F)cc1OC (single isomer, unassigned) [Example 144]
29
